- Measured On: hFXR (Homo sapiens, UniProt Q96RI1)
- Construct: expressed in transfected cells; host or cells: CV-1 cells
- Measurement Description: In Vitro FXR Assay (TK): hFXR/hRXR TK-ECRE-luc reporter in transfected CV-1 cells
- Type: cell-based
- Condition Label: 18 hrs incubation, luminescence, compounds with maximum efficacy <25% of the Fexarmine control classified as '+'
pEC50: −log10 of the molar value.
pEC50 for assorted compounds

Known pEC50 results, listed for orientation:
- Molecule Smiles: "Cn1ncc2cc([C@H]3CC[C@H](CN(c4cccc(-c5cnc(C6CC6)s5)c4)C(=O)[C@H]4CC[C@H](O)CC4)CC3)ccc21"
  Experimental Result: "≥ 6.60"
- Molecule Smiles: "COc1ccc([C@H]2CC[C@H](CN(c3cccc(C#Cc4nccs4)c3)C(=O)[C@H]3CC[C@H](O)CC3)CC2)cc1C"
  Experimental Result: "≥ 6.60"
- Molecule Smiles: "COc1ncc(-c2cccc(N(C[C@H]3CC[C@H](c4ccc(OC)c(C)c4)CC3)C(=O)[C@H]3CC[C@H](O)CC3)c2)s1"
  Experimental Result: "≥ 6.60"
- Molecule Smiles: "COc1ccc([C@H]2CC[C@H](CN(c3cc(-c4cnc(C(C)C)s4)ccn3)C(=O)[C@H]3CC[C@H](O)CC3)CC2)nc1C"
  Experimental Result: "≥ 6.60"
- Molecule Smiles: "COc1cnc([C@H]2CC[C@H](CN(c3cccc(-c4cnc(C5CC5)s4)c3)C(=O)[C@H]3CC[C@H](O)CC3)CC2)cc1C"
  Experimental Result: "6.00 to 6.60"

Prompt: May I ask what pEC50 has been recorded for COc1ccc([C@H]2CC[C@H](CN(c3cccc(-c4cnc(C5CC5)s4)c3)C(=O)[C@H]3CC[C@H](O)CC3)CC2)cc1Cl ?
Completion: ≥ 6.60

====

Attribute: EC50
- Measured On: hFXR (Homo sapiens)
- Sequence (Q96RI1 1-486): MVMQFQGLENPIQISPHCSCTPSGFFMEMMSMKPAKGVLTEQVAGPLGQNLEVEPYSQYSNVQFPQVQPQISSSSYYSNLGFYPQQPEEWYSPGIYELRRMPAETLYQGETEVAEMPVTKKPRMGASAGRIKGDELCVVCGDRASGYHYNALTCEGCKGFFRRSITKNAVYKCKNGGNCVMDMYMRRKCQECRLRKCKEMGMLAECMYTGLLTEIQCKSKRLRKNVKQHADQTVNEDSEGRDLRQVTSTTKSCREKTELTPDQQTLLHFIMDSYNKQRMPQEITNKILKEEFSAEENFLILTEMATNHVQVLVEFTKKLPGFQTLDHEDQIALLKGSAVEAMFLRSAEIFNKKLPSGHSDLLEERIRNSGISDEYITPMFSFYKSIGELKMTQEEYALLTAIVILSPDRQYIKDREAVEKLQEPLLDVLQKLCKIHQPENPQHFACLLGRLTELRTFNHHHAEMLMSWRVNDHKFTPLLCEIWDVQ
- Sequence (P19793 1-462 partner): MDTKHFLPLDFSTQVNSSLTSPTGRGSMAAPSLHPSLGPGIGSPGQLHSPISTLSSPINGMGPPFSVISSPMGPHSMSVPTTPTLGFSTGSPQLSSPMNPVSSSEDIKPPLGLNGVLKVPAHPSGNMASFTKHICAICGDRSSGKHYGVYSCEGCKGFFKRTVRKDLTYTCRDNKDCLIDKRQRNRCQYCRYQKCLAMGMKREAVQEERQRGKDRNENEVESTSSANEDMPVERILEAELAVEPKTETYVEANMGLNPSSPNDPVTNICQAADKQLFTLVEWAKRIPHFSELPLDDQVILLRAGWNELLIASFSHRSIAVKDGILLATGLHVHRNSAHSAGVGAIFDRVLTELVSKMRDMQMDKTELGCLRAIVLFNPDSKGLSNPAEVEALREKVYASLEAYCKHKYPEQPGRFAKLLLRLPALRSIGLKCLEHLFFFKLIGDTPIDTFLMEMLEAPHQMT
- Measurement Description: In Vitro FXR Assay (TK): hFXR/hRXR TK-ECRE-luc reporter in transfected CV-1 cells
- Condition Label: 18 hrs incubation, luminescence, compounds with maximum efficacy <25% of the Fexarmine control classified as '+'

Prompt: # query: EC50 of entry COc1ncc(-c2cccc(N(CC34CCC(c5ccc(OC)c(C)c5)(CC3)CC4)C(=O)[C@H]3CC[C@H](O)CC3)c2)s1 [Compound 11]
Completion: ≤ 250 nM

Prompt: GET /values?readout=EC50&item= COc1ccc([C@H]2CC[C@H](CN(c3cccc(-c4cnc(C(C)=O)s4)c3)C(=O)[C@H]3CC[C@H](O)CC3)CC2)cc1C [Compound 7.24]
Completion: 250 to 1000 nM

Prompt: EC50 lookup needed for COc1ccc([C@H]2CC[C@H](CN(c3cccc(-c4cnc(C5CC5)s4)c3)C(=O)[C@H]3CC[C@H](O)CC3)CC2)nc1C#N [Compound 9.21] , thanks.
Completion: ≤ 250 nM

Prompt: Report EC50 for COc1ccc([C@H]2CC[C@H](CN(c3cc(-c4cnc(C(C)C)s4)ccn3)C(=O)[C@H]3CC[C@H](O)CC3)CC2)cc1C [Compound 9.28] please.
Completion: ≤ 250 nM

Prompt: I am curious: what EC50 value has been reported for COc1ccc([C@H]2CC[C@H](CN(c3cccc(-c4cnc(C5CC5)s4)c3)C(=O)[C@H]3CC[C@H](O)CC3)CC2)nc1C [Compound 9.19] ?
Completion: ≤ 250 nM

Prompt: Item COc1ccc([C@H]2CC[C@H](CN(c3cccc(-c4cnc(C(F)F)s4)c3)C(=O)[C@H]3CC[C@H](O)CC3)CC2)cc1C [Compound 7.22] has what recorded EC50?
Completion: ≤ 250 nM

Source listed as patent US20200131142A1.
